test system: MOLT-4; experiment: NCI tumour cell line growth inhibition, 48 h
Activity calls are given as the source filed them. Rule as the data show it: active = GI50 up to about 1.1 µM and inactive = higher.
Parameter: GI50. Scope: all listed entries.

Here's what some known entries look like.
O=C(/C=C/c1cccc([N+](=O)[O-])c1)c1ccc([N+](=O)[O-])cc1 : > 100 µM (inactive)
C[P+](C)(C)C : > 100 µM (inactive)
Cc1cc(N(CCOS(C)(=O)=O)CCOS(C)(=O)=O)ccc1/C=N/c1ccc(-c2nc(Cc3ccccc3)sc2C)cc1 : 1.23 µM (inactive)

Q. Give the measured GI50 of CC(C(=O)c1ccc(Cl)cc1)/C(=N/NC(=O)NN)C(=O)Nc1cccc(C(F)(F)F)c1 (stereo not given) .
A. > 100 µM (inactive)

Q. Give the measured GI50 of CCNC1=C(NC(=O)c2ccc(F)cc2)C(=O)c2ccccc2C1=O .
A. 30.1 µM (inactive)

====

system: UO-31; assay: NCI tumour cell line growth inhibition, 48 h
The source made the active and inactive calls. No stated cut-off is given here; in the data, active = GI50 up to about 1.1 µM and inactive = higher.
Property Measured: GI50

Here's what some known entries look like.
NC(=O)NC(=O)C1CCC(=O)N1S(=O)(=O)c1ccc(Cl)cc1 (stereo not given) : > 100 µM (inactive)
C=CCOc1ccccc1/N=N/C(C#N)=N\Nc1ccccc1OCC=C : > 100 µM (inactive)
CCC(C)COC(=O)c1ccc(/N=C\c2ccc(/C=N/c3ccc(C(=O)OCC(C)CC)cc3)cc2)cc1 (stereo not given) : 10.5 µM (inactive)
CC12OC3(C(O)C1O)C(C(=O)O[C@H]3CO[Si](C)(C)C(C)(C)C)C2S(=O)(=O)c1ccccc1 (stereo not given in full) : 40.8 µM (inactive)

Q. # query: GI50 | item COC(=O)C1=C(C)NC(C)=C(C(=O)OC)C1c1ccc(N=O)cc1 | system: UO-31
A. 13.2 µM (inactive)

Q. # query: GI50 | item CCCC[C@H]1[C@@H](OCOc2ccccc2)COC(=O)N1[C@H](C)c1ccccc1 | system: UO-31
A. 11.8 µM (inactive)

Q. # query: GI50 | item CC1=NN(C(=O)c2cc(Cl)cc([N+](=O)[O-])c2)C(=O)C1/N=N/c1ccccc1C(=O)O (stereo not given) | system: UO-31
A. > 100 µM (inactive)

Q. # query: GI50 | item O=C1/C(=C/c2ccncc2)C(n2cccc2)c2c(Br)sc(Br)c21 (stereo not given) | system: UO-31
A. 2.29 µM (inactive)

Q. # query: GI50 | item N#Cc1cc2c(cc1Cl)Sc1nccn1S2(=O)=O | system: UO-31
A. 5.52 µM (inactive)

Q. # query: GI50 | item O=C(C[N+]1(c2ccccc2)CCOCC1)c1ccccc1 | system: UO-31
A. > 100 µM (inactive)

====

system: DMS-273; assay: NCI tumour cell line growth inhibition, 48 h
Active and inactive are the calls of the source. Rule as the data show it: active = GI50 up to about 1.1 µM and inactive = higher.
Property Measured: GI50

Here's what some known entries look like.
COc1cc2cc[n+](C)c(Cc3ccccc3)c2cc1OC : > 100 µM (inactive)
Clc1ccc2c(c1)[nH]c1c2nc2sccn21 : > 100 µM (inactive)
COc1cc2c3c(c1OC)-c1c(ccc4c1OCO4)CC3(C#N)N(C(=O)c1ccccc1)CC2 (stereo unspecified) : 49.7 µM (inactive)
CC1=C2C(=O)C3[C@@H](CCC4=CC(=O)CC[C@@]43C)C2CC[C@]12O[C@@H]1C[C@H](C)CN[C@H]1[C@H]2C (stereo partly specified) : 17.7 µM (inactive)
N#CC(C(=O)/C(=N/Nc1nc(S)nn1N)C(C#N)c1ccccc1)c1ccccc1 (stereo unspecified) : > 100 µM (inactive)

Q. Give the measured GI50 of COc1ccc(C(=O)Nc2ccn(CCOC(=O)c3ccc(OC)cc3)c(=O)n2)cc1 .
A. > 100 µM (inactive)

Q. Give the measured GI50 of CC1(CO)C(=O)OC12CCCCC2 (stereo unspecified) .
A. > 100 µM (inactive)

====

tested on: OVCAR-3; assay: NCI tumour cell line growth inhibition, 48 h
Calls of active or inactive are those of the source. Cut-off read from the data, not from the text of the source: active = GI50 up to about 1.1 µM and inactive = higher.
Parameter: GI50. Scope: all listed entries.

Here's what some known entries look like.
Clc1ccc(OCc2nn3c(CCc4nnc5sc(COc6ccc(Cl)cc6)nn45)nnc3s2)cc1 : 16 µM (inactive)
O=C1C(Cl)C(c2cccc(Cl)c2)N1c1ccc(-n2c(S)nc3ccccc3c2=O)cc1 (centres undefined) : 30.5 µM (inactive)
Cc1cccc(N2C(=O)C3ON(C(C(N)=O)c4ccccc4)C(c4c5ccccc5c(Cl)c5ccccc45)C3C2=O)c1C (centres undefined) : 8.43 µM (inactive)
O=C(O)c1ccc(NC(c2ccccc2)c2ccc3cccnc3c2O)cc1 (centres undefined) : 2.99 µM (inactive)
COc1ccc(NC(=O)/C(=N/NC(N)=S)C2C(=O)NC(=S)NC2=O)c(OC)c1 : > 100 µM (inactive)

Q. Give the measured GI50 of COc1cc(S(=O)(=O)Nc2ccc(-c3csc(N)n3)cc2)ccc1Cl .
A. 14.9 µM (inactive)

Q. Give the measured GI50 of Cc1ccc(S(=O)(=O)n2c3c(c4ccccc42)CCN2CCC(Br)C[C@@H]32)cc1 (some centres undefined) .
A. 11.1 µM (inactive)

Q. Give the measured GI50 of Cc1ccc(C2(c3ccc(C)cc3)SC(=C(C#N)C#N)c3ccccc32)cc1 .
A. > 100 µM (inactive)

Q. Give the measured GI50 of CC(C)(C)OC(=O)NCCC1CN(C(=O)c2ccccc2)c2ccccc21 (centres undefined) .
A. 15.9 µM (inactive)

====

tested on: CCRF-CEM; assay: NCI tumour cell line growth inhibition, 48 h
The source made the active and inactive calls. Cut-off read from the data, not from the text of the source: active = GI50 up to about 1.1 µM and inactive = higher.
Would you mind answering with one of these outcomes? Y = active, N = inactive

These solved cases illustrate the format of a correct answer.
CC(=O)NNc1nc(-c2ccc([N+](=O)[O-])cc2)c(C#N)c(=O)n1C : N
COc1ccc(NC(=S)Nc2cc(C)cc(C)n2)cc1 : N
COc1cc([C@@H]2C3C(=O)c4ccccc4C3[C@@H](c3cc(OC)c(OC)c(OC)c3)C23Cc2ccccc2C3=O)cc(OC)c1OC (stereo not given in full) : N
O=S(=O)(O)c1cc2ccc1/C=C\c1ccc(cc1S(=O)(=O)O)/N=N\c1ccc(c(S(=O)(=O)O)c1)/C=C\c1ccc(cc1S(=O)(=O)O)/N=N\2 : N
CCNC1=C(NC(=O)c2ccc(F)cc2)C(=O)c2ccccc2C1=O : N

Q. GET /call?item= COc1ccc(OCc2nc3cc(C(F)(F)F)ccc3nc2-c2ccccc2)cc1 returns the recorded outcome of this test.
A. N

Q. GET /call?item= C[C@@]1(Br)C[C@@](C)(Cl)[C@@H](Br)CC1/C=C/Cl (stereo not given in full) returns the recorded outcome of this test.
A. N

Q. GET /call?item= CC1(C)OC(=C(C#N)C#N)C(C#N)=C1/C=C/c1ccncc1 returns the recorded outcome of this test.
A. Y

Q. GET /call?item= CC(NC1=NCCO1)c1cccc([N+](=O)[O-])c1 (stereo not given) returns the recorded outcome of this test.
A. N

Q. GET /call?item= O=Cc1cc(O)c(O)c(O)c1-c1c(C=O)cc(O)c(O)c1O returns the recorded outcome of this test.
A. N

Q. GET /call?item= CCN(CC)CCOC(=O)c1ccc(N)cc1.CCOC(=O)Nc1ccc(S(=O)(=O)OC)cc1.CCOC(=O)Nc1ccc(S(=O)(=O)OC)cc1.Nc1ccc(C(=O)O)c(O)c1 returns the recorded outcome of this test.
A. N

Q. GET /call?item= Cc1ccc(C2(c3ccc(C)cc3)SC(=C(C#N)C#N)c3ccccc32)cc1 returns the recorded outcome of this test.
A. N

Q. GET /call?item= COc1ccc([C@H]2[C@@H]3CCc4ccccc4C3=NN2C(N)=S)cc1OC returns the recorded outcome of this test.
A. N

Q. GET /call?item= Cn1c2c(c3ccccc31)C1C(=O)N(c3ccccc3)C(=O)C1CC2 (stereo not given) returns the recorded outcome of this test.
A. N

Q. GET /call?item= COCN1C(=O)[C@@H]2C[C@@H](O)CN2C(=O)c2ccccc21 returns the recorded outcome of this test.
A. N

Q. GET /call?item= COc1ccc(NC(=O)/C(=N/NC(N)=S)C2C(=O)NC(=S)NC2=O)c(OC)c1 returns the recorded outcome of this test.
A. N

Q. GET /call?item= O=C1N/C(=N/N=C\c2ccccc2)N/C1=C/c1ccccc1 returns the recorded outcome of this test.
A. N

Q. GET /call?item= COc1cc(S(=O)(=O)Nc2ccc(-c3csc(N)n3)cc2)ccc1Cl returns the recorded outcome of this test.
A. N

Q. GET /call?item= Nc1nnc2nc(CC(=O)/C=C/c3ccccc3)c(=O)[nH]n12 returns the recorded outcome of this test.
A. N

Q. GET /call?item= CC1Oc2c(c(=O)oc3ccccc23)[C@@]1(C)CC1C[C@H](C)C(=O)O1 (stereo not given in full) returns the recorded outcome of this test.
A. N

src = ChEMBL document CHEMBL1201862
